Molecular target: purified human HDAC6 (Homo sapiens, UniProt Q9UBN7)
Construct: purchased BPS Bioscience 5006
Sequence (Q9UBN7 1-1215): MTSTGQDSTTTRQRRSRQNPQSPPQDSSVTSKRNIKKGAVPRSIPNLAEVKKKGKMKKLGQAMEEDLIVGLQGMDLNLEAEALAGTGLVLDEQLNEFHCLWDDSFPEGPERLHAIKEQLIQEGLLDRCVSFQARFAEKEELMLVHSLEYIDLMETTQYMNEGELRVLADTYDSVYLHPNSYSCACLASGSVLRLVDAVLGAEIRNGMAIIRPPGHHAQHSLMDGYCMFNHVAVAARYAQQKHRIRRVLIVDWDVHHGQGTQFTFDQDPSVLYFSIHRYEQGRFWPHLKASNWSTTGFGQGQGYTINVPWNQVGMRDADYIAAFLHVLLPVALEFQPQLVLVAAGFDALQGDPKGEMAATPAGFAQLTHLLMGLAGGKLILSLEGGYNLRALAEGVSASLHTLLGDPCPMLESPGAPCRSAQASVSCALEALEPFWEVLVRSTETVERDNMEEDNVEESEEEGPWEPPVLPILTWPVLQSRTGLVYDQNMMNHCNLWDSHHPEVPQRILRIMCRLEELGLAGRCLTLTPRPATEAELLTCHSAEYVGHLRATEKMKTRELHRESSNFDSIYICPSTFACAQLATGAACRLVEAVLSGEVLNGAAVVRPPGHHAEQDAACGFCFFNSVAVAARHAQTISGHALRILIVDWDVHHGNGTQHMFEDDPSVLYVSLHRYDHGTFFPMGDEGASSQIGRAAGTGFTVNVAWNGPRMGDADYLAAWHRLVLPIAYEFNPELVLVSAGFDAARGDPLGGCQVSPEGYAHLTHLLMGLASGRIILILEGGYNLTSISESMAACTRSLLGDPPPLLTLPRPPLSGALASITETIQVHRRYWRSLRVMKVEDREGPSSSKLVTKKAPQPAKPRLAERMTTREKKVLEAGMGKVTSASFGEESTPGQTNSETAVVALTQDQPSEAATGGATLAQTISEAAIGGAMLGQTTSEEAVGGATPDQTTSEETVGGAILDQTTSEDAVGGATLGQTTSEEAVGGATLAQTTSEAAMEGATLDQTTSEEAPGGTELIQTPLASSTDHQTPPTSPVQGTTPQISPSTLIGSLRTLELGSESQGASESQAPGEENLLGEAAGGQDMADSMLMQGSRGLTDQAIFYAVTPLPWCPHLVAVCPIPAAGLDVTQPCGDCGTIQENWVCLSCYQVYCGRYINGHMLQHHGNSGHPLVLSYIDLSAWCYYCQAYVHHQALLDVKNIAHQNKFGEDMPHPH
Experiment: HDAC6 Enzyme Assay
Assay type: biochemical
Details: compound concentration 0.37 μM, read-out: Percent Inhibition
Method: To measure the inhibition of HDAC6 activity, purified human HDAC6 (BPS Bioscience; Cat. No. 5006) is incubated with substrate Ac-Arg-Gly-Lys(Ac)-AMC peptide (Bachem Biosciences; Cat. No. I-1925) for 1 hour at 30° C. in the presence of test compounds or vehicle DMSO control. […]
measuredProperty: inhibition at 0.37 µM (%)
Provide only the numeric value, understood in %.

molecule | unitsLabel | inhibition at 0.37 µM
O=C(NO)c1ccc2ncn(Cc3cccc(-c4cccc(OC(F)(F)F)c4)c3)c(=O)c2c1 [Compound I-37] | % | 89.8
Cc1ccccc1Cc1nc2cc(C(=O)NO)ccc2c(=O)n1Cc1ccc(C(F)(F)F)cc1 [Compound I-35] | % | 66
O=C(NO)c1ccc2ccn(-c3ccnc(NC(=O)C4CC4)c3)c(=O)c2c1 [Compound I-397] | % | 96.3
CC(C)(c1ccccc1)n1cnc2ccc(C(=O)NO)cc2c1=O [Compound I-413] | % | 94.1
O=C(NO)c1ccc2ccn(Cc3ccc(-n4cccc4)cc3)c(=O)c2c1 [Compound I-305] | % | 99

Exercise: Please look at O=C(NO)c1ccc2c(=O)[nH]c(Cc3ccccc3F)nc2c1 [Compound I-411] and tell me its recorded inhibition at 0.37 µM on purified human HDAC6 (Homo sapiens, UniProt Q9UBN7).
Key: 85.1

Exercise: Give the observed inhibition at 0.37 µM of COc1ccncc1-c1nc2cc(C(=O)NO)ccc2c(=O)[nH]1 [Compound I-410] for purified human HDAC6 (Homo sapiens, UniProt Q9UBN7).
Key: 68.1

Exercise: With purified human HDAC6 (Homo sapiens, UniProt Q9UBN7) as the test system, provide measured inhibition at 0.37 µM for this molecule: Cc1cccc(-c2cccc(CCn3cnc4ccc(C(=O)NO)cc4c3=O)c2)c1 [Compound I-304]
Key: 90.9

Taken from patent US8765773B2.
